This collection of values is drawn from patent US5843992A.

Below: a set of entries, each annotated with reported IC50.
Target: cathepsin L (Rattus norvegicus)
Sequence (P07154 114-334): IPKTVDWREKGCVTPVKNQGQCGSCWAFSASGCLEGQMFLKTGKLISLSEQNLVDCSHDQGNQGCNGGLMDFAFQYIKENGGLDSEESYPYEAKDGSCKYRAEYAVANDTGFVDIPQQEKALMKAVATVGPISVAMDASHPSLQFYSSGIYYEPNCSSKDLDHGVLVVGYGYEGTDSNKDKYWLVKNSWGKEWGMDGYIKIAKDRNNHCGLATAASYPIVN
Test: Cathepsin L inhibitory action (rat liver lysosome fraction, Z-Phe-Arg-MCA)
Settings: pH 5.5, 30° C., in the presence of 10^-7 M CA-074; read-out: Cathepsin L Inhibition IC50
Number in nM, nothing else.

Solved cases (3 shown):
Using the record for O=C(O)[C@H]1O[C@@H]1C(=O)NC(c1ccccc1)c1ccccc1 , state its measured IC50.
240

Supply recorded IC50 for CC(C)CCC(CCC(C)C)NC(=O)[C@H]1O[C@@H]1C(=O)O here.
19

Give the value of IC50 reported for the following: CC(C)CCNC(=O)[C@H]1O[C@@H]1C(=O)O (relative stereo) [Comparison X, reference compound]
78

Now for another entry.
Note IC50 for the compound shown: O=C(O)[C@H]1O[C@@H]1C(=O)NCc1ccccc1 (relative stereo) [Comparison Y, reference compound]
350
